target: glutathione S-transferase (GST)-fused full-length human Syk protein (Homo sapiens); construct: (GST)-fused full-length human Syk protein; GST (glutathione S-transferase); purchased Carna Biosciences; experiment: Syk enzyme assay; type: biochemical; settings: Syk enzyme assay, Test Example 1; read-out: IC50 of Syk-inhibitory activity
property: IC50

Example entries and their recorded answers appear below.
NC(=O)c1cc(F)c(NC[C@@H](N)c2ccccc2)nc1Nc1cccc(-n2nccn2)c1 = 10 to 50 nM
NC[C@H](Nc1nc(Nc2cccc(-n3nccn3)c2)c(C(N)=O)cc1F)c1ccccc1 = < 10 nM
NC[C@H](Nc1nc(Nc2ccc3cccnc3c2)c(C(N)=O)cc1F)c1ccccc1 = 10 to 50 nM
NC(=O)c1cc(F)c(NC2CCCCC2N)nc1Nc1cncc2ccccc12 (stereo not drawn) = < 10 nM
CC(C)C[C@H](CN)Nc1nc(Nc2ccc3cnn(C)c3c2)c(C(N)=O)cc1F = < 10 nM
COCCn1nc(F)c2c(Nc3nc(N[C@H](CC4CC4)[C@H](C)N)c(F)cc3C(N)=O)cccc21 = 50 to 100 nM
CCn1ncc2cc(Nc3nc(N[C@H](c4ccccc4)[C@H](C)N)c(F)cc3C(N)=O)ccc21 = < 10 nM
NC(=O)c1cc(F)c(N[C@@H]2CCCC[C@@H]2N)nc1Nc1cncc(-c2cccc(N)c2)c1 [Example 043-000] = < 10 nM
Cc1ccc(-c2cc(Nc3nc(NC4CCCCC4N)c(F)cc3C(N)=O)ccn2)o1 (stereo not drawn) = < 10 nM
COc1ncc(Nc2nc(N[C@H](CC3CC3)[C@H](C)N)c(F)cc2C(N)=O)cc1-n1nccn1 = 10 to 50 nM

# context switch: different compound, same IC50
Which value of IC50 has been reported for NC(=O)c1cc(F)c(N[C@@H]2CCCC[C@@H]2N)nc1Nc1cncc(-c2ccno2)c1 (relative stereo) in the records? < 10 nM
